B1: OR4K15 (parent)
chain: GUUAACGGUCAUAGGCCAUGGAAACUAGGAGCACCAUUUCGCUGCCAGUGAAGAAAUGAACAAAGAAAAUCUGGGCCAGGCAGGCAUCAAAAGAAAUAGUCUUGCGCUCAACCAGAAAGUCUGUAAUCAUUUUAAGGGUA

Variants of: B1
Assay: self-cleavage, relative activity (ratio to wild type); higher = more cleavage; in vitro, sequencing; the parent is a self-cleaving ribozyme
value.kind: self-cleavage
# answer = number (no unit)

entry.sequence: GUUAACGGUCAUAGGCCAUGGAAACUAGGAGCACCAUUUCGCUGCCAGUGAAGAAAUGAACAAAGAAGAUCUGGGCCAGGCAGGCAUCUAAAGAAAUAGUCUUGCGCUCAACCAGAAAGUCUGUAAUCAUUUUAAGGGUA [A68G A89U]
recorded.measurement: 2.23
--
entry.sequence: GCUAACGGUCAUAGGCCAUGGAAACUAGGAGCACCAUUUCGCUGCCAGUGAAGAAAUGAACAAAGAAAAUCUGGGCCAGGCAGGCAUCAAAAGAAAUAGUCUUCCGCUCAACCAGAAAGUCUGUAAUCAUUUUAAGGGUA [U2C G104C]
recorded.measurement: 0.1
--
entry.sequence: GUUAACGGUCAUAGGCCAUGGAAACUAGGAGCACCAUUUCGCUGCCAGUGAAGAAAUGAACGAAGAAAAUCUGGGCCAGGCAGGCAUCAAAAGAAAUAGUCUUGCGCUCAACUAGAAAGUCUGUAAUCAUUUUAAGGGUA [A62G C113U]
recorded.measurement: 0.14

Value lookup for self-cleavage; key = GUUAACGGUCAUAGGCCAUGGAAACUAGGAGCACCAUUUCGCUGCCAGUGAAGAAAUGAACAAAGAAAAUCUGGGCCAGGCAGGCAUCAAAAGAAAUAGUCUUGCGCUCUACCAGAAAGUCUGUAAUCAUUUUAAGAGUA [A110U G137A] 1.55

Value lookup for self-cleavage; key = GUUAACGGUCAUAGGCCAUGGAAACUAGGAGCACCAUUUCGCUGCCAGUGAAGAAAUGAACAAAGAAAAUCUGGGCCACGCAGGCAUCAAAAGAAAUAGUCUUGCGCUCAACCAGAAAGUCUGUAAUCAUUUUAAGGGUA [G79C] 0.08

Value lookup for self-cleavage; key = GUUAACGGUCAUAGGCCAUGGAAGCUAGGAGCACCAUUUCGCUGCCAGUGAAGAAAUGAACAAAGAAAAUCUGGGCCAGGCAAGCAUCAAAAGAAAUAGUCUUGCGCUCAACCAGAAAGUCUGUAAUCAUUUUAAGGGUA [A24G G83A] 0.98

Value lookup for self-cleavage; key = GUUAACGGUCGUAGGCCAUGGAAACUAGGAGCACCAUUUCGCUGCCAGUGAAGAAAUGAACAAAGAACAUCUGGGCCAGGCAGGCAUCAAAAGAAAUAGUCUUGCGCUCAACCAGAAAGUCUGUAAUCAUUUUAAGGGUA [A11G A68C] 0.39
